Recorded values, source ChEMBL document CHEMBL1134722.

The entries below come with measured half-life values attached.
# measurementDescription: Half life period after intravenous administration at 20 mpk in rats
# Assay type: ADME, organism-based
# experimentalContext: rat, in vivo, 20 mg/kg
propertyName: half-life (h)

O=C(NO)c1ccccc1S(=O)(=O)N1CCC(Oc2ccc(C(F)(F)F)cc2)CC1: 0.8
CC1(C)SCCN(S(=O)(=O)c2ccc(Oc3ccncc3)cc2)[C@H]1C(=O)NO: 1.6
O=C(NO)C1(CS(=O)(=O)c2ccc(Oc3ccc(Cl)cc3)cc2)CCOCC1: 1.5
COc1ccc(S(=O)(=O)N2CCC(Oc3ccc(OC(F)(F)F)cc3)CC2)c(C(=O)NO)c1OC: 1.5
COc1ccc(S(=O)(=O)N2CCC(Oc3ccc(C(F)(F)F)cc3)CC2)c(C(=O)NO)c1OC: 1.9
CNC(=O)[C@@H](NC(=O)C(CC(C)C)C(O)C(=O)NO)C(C)(C)C (single isomer, unassigned): 0.9

---

Documented Activity across a set of compounds
# assayedSystem: Interstitial collagenase (Homo sapiens)
# measurementDescription: Inhibitory activity against human Matrix metalloprotease-1
propertyName: Activity

O=C(NO)c1ccccc1S(=O)(=O)N1CCC(Oc2ccc(C(F)(F)F)cc2)CC1: > 10 µM
O=C(NO)c1c(S(=O)(=O)N2CCC(OCc3ccc4c(c3)OCO4)CC2)ccc2c1OCO2: > 10 µM
COCCOc1cccc(S(=O)(=O)N2CCC(Oc3ccc(C(F)(F)F)cc3)CC2)c1C(=O)NO: > 10 µM
O=C(NO)c1c(S(=O)(=O)N2CCC(Oc3ccc(C(F)(F)F)cc3)CC2)ccc2c1OCO2: > 10 µM
O=C(NO)C1(CS(=O)(=O)c2ccc(Oc3ccc(Cl)cc3)cc2)CCOCC1: 0.8 µM

---

# measurementDescription: Oral bioavailability in rat
# Format: ADME, organism-based
# experimentalContext: in vivo, read-out: BA
propertyName: bioavailability

COc1ccc(S(=O)(=O)N2CCC(Oc3ccc(C(F)(F)F)cc3)CC2)c(C(=O)NO)c1OC: 32%
O=C(NO)c1ccccc1S(=O)(=O)N1CCC(Oc2ccc(OC(F)(F)F)cc2)CC1: 39%
CNC(=O)[C@@H](NC(=O)C(CC(C)C)C(O)C(=O)NO)C(C)(C)C (single isomer, unassigned): 9%
COc1ccc(S(=O)(=O)N2CCC(Oc3ccc(OC(F)(F)F)cc3)CC2)c(C(=O)NO)c1OC: 31%
CC1(C)SCCN(S(=O)(=O)c2ccc(Oc3ccncc3)cc2)[C@H]1C(=O)NO [PRINOMASTAT]: 28%
O=C(NO)C1(CS(=O)(=O)c2ccc(Oc3ccc(Cl)cc3)cc2)CCOCC1 [CTS-1027]: 22%
O=C(NO)c1ccccc1S(=O)(=O)N1CCC(Oc2ccc(C(F)(F)F)cc2)CC1: 23%

---

# assayedSystem: 72 kDa type IV collagenase (Homo sapiens) (UniProt P08253)
# Sequence (P08253 110-660 limits assumed): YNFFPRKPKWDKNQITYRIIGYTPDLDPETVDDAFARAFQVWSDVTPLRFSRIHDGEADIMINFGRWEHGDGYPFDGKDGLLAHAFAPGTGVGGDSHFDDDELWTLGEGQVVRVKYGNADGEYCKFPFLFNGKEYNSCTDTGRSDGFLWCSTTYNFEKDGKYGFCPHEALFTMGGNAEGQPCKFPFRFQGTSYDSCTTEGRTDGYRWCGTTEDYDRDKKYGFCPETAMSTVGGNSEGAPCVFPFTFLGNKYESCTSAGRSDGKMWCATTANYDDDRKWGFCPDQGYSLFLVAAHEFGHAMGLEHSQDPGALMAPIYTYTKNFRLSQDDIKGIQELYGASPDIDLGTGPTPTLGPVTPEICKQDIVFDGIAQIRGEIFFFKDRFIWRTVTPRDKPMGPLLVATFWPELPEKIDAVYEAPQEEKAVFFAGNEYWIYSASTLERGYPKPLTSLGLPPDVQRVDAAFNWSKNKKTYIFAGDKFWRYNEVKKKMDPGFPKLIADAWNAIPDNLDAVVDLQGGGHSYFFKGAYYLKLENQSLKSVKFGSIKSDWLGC
# measurementDescription: Inhibitory concentration against Matrix metalloprotease-2
hey, just use fulfilled if measured Activity is less than 2 nM, otherwise not fulfilled

COc1ccc(S(=O)(=O)N2CCC(OCc3ccc4c(c3)OCO4)CC2)c(C(=O)NO)c1OC: fulfilled
O=C(NO)c1c(OC2CCOCC2)cccc1S(=O)(=O)N1CCC(Oc2ccc(C(F)(F)F)cc2)CC1: fulfilled
O=C(NO)c1c(F)cccc1S(=O)(=O)N1CCC(Oc2ccc(C(F)(F)F)cc2)CC1: not fulfilled
COc1cccc(OC2CCN(S(=O)(=O)c3ccc(OC)c(OC)c3C(=O)NO)CC2)c1: not fulfilled
COc1ccc(S(=O)(=O)N2CCC(Oc3ccc(C(F)(F)F)cc3)CC2)c(C(=O)NO)c1OC: not fulfilled
O=C(NO)c1c(Cl)cccc1S(=O)(=O)N1CCC(Oc2ccc(C(F)(F)F)cc2)CC1: fulfilled
COc1ccc(OC2CCN(S(=O)(=O)c3ccc(OC)c(OC)c3C(=O)NO)CC2)cc1: fulfilled
O=C(NO)C1(CS(=O)(=O)c2ccc(Oc3ccc(Cl)cc3)cc2)CCOCC1: fulfilled
O=C(NO)c1ccccc1S(=O)(=O)N1CCC(Oc2ccc(OC(F)(F)F)cc2)CC1: not fulfilled
